- System: SW-620
- EXPERIMENT_SUMMARY: NCI tumour cell line growth inhibition, 48 h
Active and inactive are the calls of the source. No stated cut-off is given here; in the data, active = GI50 up to about 1.1 µM and inactive = higher.
Bench note: report the call from true (active), false (inactive)

QUERY: Hello, I am checking results. What call was entered for CC(=O)n1ccc2c(Cl)ncnc21 ?
RESULT: false

QUERY: Hello, I am checking results. What call was entered for O=c1c(Cl)c(Cl)c(=O)c2sc3cc(Cl)ccc3[nH]c1=2 ?
RESULT: false

QUERY: Hello, I am checking results. What call was entered for N=C(N)N/N=C/c1oc(-c2ccc(S(=O)(=O)O)o2)c(-c2ccc(S(=O)(=O)O)o2)c1[N+](=O)[O-] ?
RESULT: false

QUERY: Hello, I am checking results. What call was entered for COc1ccc(CCNC(=O)Cc2ccccc2CO)cc1OC ?
RESULT: false

QUERY: Hello, I am checking results. What call was entered for COc1cccc(/C=N\NC(=O)C(C)SC(C)C(=O)N/N=C/c2cccc(OC)c2)c1 (stereo not given) ?
RESULT: false

QUERY: Hello, I am checking results. What call was entered for Cc1nc(NC(C)(CO)CO)nc(N/N=C/c2ccc(Cl)cc2)c1C(=O)Nc1ccc(Cl)cc1 ?
RESULT: false

QUERY: Hello, I am checking results. What call was entered for Cc1cc(NC(=O)NC(=O)c2ccccc2N)ccc1Oc1ncc(Br)cn1 ?
RESULT: true

QUERY: Hello, I am checking results. What call was entered for O=C(c1ccc(Cl)cc1)c1ccc(OCCSCCCCCCCCCCSCCOc2ccc(C(=O)c3ccc(Cl)cc3)cc2)cc1 ?
RESULT: false

QUERY: Hello, I am checking results. What call was entered for C/C=C(\C)C(=O)OC1C2C(C)C(=O)OC2C(O)C(C)C2C=CC(=O)C21C (stereo not given) ?
RESULT: false

QUERY: Hello, I am checking results. What call was entered for N#CCc1ccccc1/C(C#N)=C1/OC(=N)C(c2ccccc2CC#N)C1=O (stereo not given) ?
RESULT: false

QUERY: Hello, I am checking results. What call was entered for CCOc1ccc(/N=N/C2C(=O)N(C(=O)CC(=O)Nc3ccc(C)cc3)N=C2C)cc1 (stereo not given) ?
RESULT: false

QUERY: Hello, I am checking results. What call was entered for O=C(O)CCN(CCCCN(CCC(=O)O)CCC(=O)O)CCC(=O)O ?
RESULT: false

QUERY: Hello, I am checking results. What call was entered for CNC(=O)C1OC(n2cnc3c(NCc4cccc(I)c4)nc(Cl)nc32)C(O)C1O (stereo not given) ?
RESULT: false

QUERY: Hello, I am checking results. What call was entered for O=C1CSC(=S)N1c1ccc(F)cc1F ?
RESULT: false

QUERY: Hello, I am checking results. What call was entered for O=C1C=C(N2CCCC2)C=C(N2CCCC2)C1 ?
RESULT: false

* * *

- System: SF-539
- EXPERIMENT_SUMMARY: NCI tumour cell line growth inhibition, 48 h
Calls of active or inactive are those of the source. No stated cut-off is given here; in the data, active = GI50 up to about 1.1 µM and inactive = higher.
Bench note: report the call from TRUE = active, FALSE = inactive

QUERY: Hello, I am checking results. What call was entered for CC(C)CCCCCCCCCCCCC(=O)NCC(=O)NC1C(O)C(O)C(Nc2[nH]cnc3ncnc2-3)OC1C(O)CO (stereo unspecified) ?
RESULT: TRUE

QUERY: Hello, I am checking results. What call was entered for C=C1C(=O)OC2CCCCC3OC3C12 (stereo unspecified) ?
RESULT: FALSE

QUERY: Hello, I am checking results. What call was entered for CC1(c2ccc(Cl)cc2)CC(c2ccc(Cl)cc2)=C(C#N)C(=C(C#N)C#N)N1 (stereo unspecified) ?
RESULT: FALSE

QUERY: Hello, I am checking results. What call was entered for O=c1[nH][nH]c(=S)c(=O)[nH]1 ?
RESULT: FALSE

QUERY: Hello, I am checking results. What call was entered for O=C1NC2(CCCCC2)C2CCCCC=C12 (stereo unspecified) ?
RESULT: FALSE

QUERY: Hello, I am checking results. What call was entered for C=C1C(=O)OC2/C=C(CO)/C=C\C3OC3(C)CC(OC(=O)/C(C)=C/COC(C)=O)C12 (stereo unspecified) ?
RESULT: FALSE

QUERY: Hello, I am checking results. What call was entered for COc1cc(S(=O)(=O)Nc2ccc(-c3csc(/N=C\c4cccs4)n3)cc2)ccc1Cl ?
RESULT: FALSE

QUERY: Hello, I am checking results. What call was entered for CNC(=O)OCc1cc2ccncc2c2c1[nH]c1ccccc12 ?
RESULT: FALSE

QUERY: Hello, I am checking results. What call was entered for CC#COS(=O)(=O)c1ccc(C)cc1 ?
RESULT: FALSE

QUERY: Hello, I am checking results. What call was entered for Cc1ccc(S(=O)(=O)N2CCC2c2ccccc2)cc1 (stereo unspecified) ?
RESULT: FALSE

QUERY: Hello, I am checking results. What call was entered for N=C(N)SCc1cccc(-c2nc3ccccc3c(=O)o2)c1 ?
RESULT: FALSE
